Hello, the source for this data is ChEMBL document CHEMBL5055651, in case you need it.

Assay: Selectivity index, ratio of IC50 for human BEAS-2B cells to IC50 for human MDA-MB-231 cells
Format: toxicity
Details: BEAS-2B cells versus MDA-MB-231 cells, read-out: Selectivity Index
Quantity Kind: selectivity ratio
Answer as a number with no unit attached.

For "CC(=O)O[C@H]1C(=O)[C@@]2(C)[C@H]([C@H](OC(=O)c3ccccc3)[C@]3(O)C[C@H](OC(=O)[C@H](O)[C@@H](NC(=O)c4ccccc4)c4ccccc4)C(C)=C1C3(C)C)[C@]1(OC(C)=O)CO[C@@H]1C[C@@H]2O" , what is its reported selectivity ratio? 0.2

----------
Experiment: Selectivity index, ratio of IC50 for human BEAS-2B cells to IC50 for human MCF7 cells
Assay type: toxicity
Settings: BEAS-2B cells versus MCF7 cells, read-out: Selectivity Index
Quantity Kind: selectivity ratio

Reported selectivity ratio, molecule CC(=O)O[C@H]1C(=O)[C@@]2(C)[C@H]([C@H](OC(=O)c3ccccc3)[C@]3(O)C[C@H](OC(=O)[C@H](O)[C@@H](NC(=O)c4ccccc4)c4ccccc4)C(C)=C1C3(C)C)[C@]1(OC(C)=O)CO[C@@H]1C[C@@H]2O [PACLITAXEL] : ____ 0.26
